System: rLCMV/ZsG
Experiment: microbe, parasite or virus in culture
Type: cell-based, lymphocytic choriomeningitis virus (LCMV)
Conditions: Mammarenavirus choriomeningitidis, A549, 48 h, read-out: rLCMV (A549 cell) EC50
PROPERTY MEASURED: EC50 (nM)

INSERT INTO assay_data (mol, property_measured, test_result) VALUES
  ('Cc1c(-c2ccc(-c3ccccc3F)cc2)nc2ccc(F)cc2c1C(=O)O', 'EC50', 41),
  ('COc1cccc(-c2ccc(NC(=O)C3=C(C(=O)O)CCC3)c(F)c2)c1', 'EC50', 1280);

---

Assay: in vitro
Details: African green monkey (Chlorocebus aethiops)
PROPERTY MEASURED: CC50 (µM)

INSERT INTO assay_data (molecule, property_measured, test_result) VALUES
  ('COc1cccc(-c2ccc(NC(=O)C3=C(C(=O)O)CCC3)c(F)c2)c1 [Cmp 4, vidofludimus calcium]', 'CC50', 5.92),
  ('Cc1c(-c2ccc(-c3ccccc3F)cc2)nc2ccc(F)cc2c1C(=O)O [Brequinar]', 'CC50', 47.2);

---

Test system: r3Can
Assay: organism not typed
Format: cell-based, Junín virus (JUNV) Candid#1 strain
Conditions: Vero, read-out: r3Can (Vero cell) EC50
pEC50: −log10 of the molar value.
PROPERTY MEASURED: pEC50

INSERT INTO assay_data (compound, property_measured, test_result) VALUES
  ('Cc1c(-c2ccc(-c3ccccc3F)cc2)nc2ccc(F)cc2c1C(=O)O [Brequinar]', 'pEC50', 7.40),
  ('COc1cccc(-c2ccc(NC(=O)C3=C(C(=O)O)CCC3)c(F)c2)c1 [Cmp 4, vidofludimus calcium]', 'pEC50', 5.77);

---

Assay: in vitro
Details: human
PROPERTY MEASURED: CC50 (µM)

INSERT INTO measurements (mol, unit_of_measure, test_result) VALUES
  ('Cc1c(-c2ccc(-c3ccccc3F)cc2)nc2ccc(F)cc2c1C(=O)O', 'µM', 79),
  ('COc1cccc(-c2ccc(NC(=O)C3=C(C(=O)O)CCC3)c(F)c2)c1', 'µM', 54.4);
